- Tested on: HOP-62 complex spheroids with HUVEC/MSC, viability
- assay: Anticancer human tumor HOP-62 cell line growth inhibition [RAS];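 also: spheroids exposed to agents for seven days before readout; 100% = DMSO vehicle control viability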
- reported.conditions: second compound 0.0949 µM; first compound 0.0316 µM; hits give low values
For each of the compounds below, state its viability, T/C.
Express it in %; write the number only.

Exercise: Provide value of viability, T/C for this record tested with HOP-62 complex spheroids with HUVEC/MSC, viability: C=CC(=O)Nc1cc(Nc2nccc(-c3cn(C)c4ccccc34)n2)c(OC)cc1N(C)CCN(C)C + CCn1c(-c2cccnc2C(C)OC)c2c3cc(ccc31)N1CCOC(CC(NC(=O)C(C(C)C)N(C)C(=O)C3(F)CCN(C(=O)C#CC(C)(C)N(C)C)CC3)C(=O)N3CCCC(N3)C(=O)OCC(C)(C)C2)C1
Key: 84.2

Exercise: Provide the documented viability, T/C with HOP-62 complex spheroids with HUVEC/MSC, viability as the system for CCC(CC)c1cc(NC2CCC(N)C2)n2nccc2n1 (stereo not given) + CCn1c(-c2cccnc2C(C)OC)c2c3cc(ccc31)N1CCOC(CC(NC(=O)C(C(C)C)N(C)C(=O)C3(F)CCN(C(=O)C#CC(C)(C)N(C)C)CC3)C(=O)N3CCCC(N3)C(=O)OCC(C)(C)C2)C1
Key: 91.7

Exercise: # returns recorded viability, T/C (system: HOP-62 complex spheroids with HUVEC/MSC, viability) for CCC(CC)c1cc(NC2CCC(N)C2)n2nccc2n1 (stereo not given) + CCn1c(-c2cc(N3CCN(C)CC3)cnc2C(C)OC)c2c3cc(ccc31)-c1csc(n1)CC(NC(=O)C1CC1C)C(=O)N1CCCC(N1)C(=O)OCC(C)(C)C2
Key: 40.1

Exercise: // map CC1(O)CCCC1n1c(=O)c(C(F)F)cc2cnc(NC3CCN(S(C)(=O)=O)CC3)nc21 (stereo not given) + CCn1c(-c2cc(N3CCN(C)CC3)cnc2C(C)OC)c2c3cc(ccc31)-c1csc(n1)CC(NC(=O)C1CC1C)C(=O)N1CCCC(N1)C(=O)OCC(C)(C)C2 to recorded viability, T/C (system: HOP-62 complex spheroids with HUVEC/MSC, viability)
Key: 32.5

Exercise: Hi! What's the reported viability, T/C for CC(C)NCC(C(=O)N1CCN(c2ncnc3c2C(C)CC3O)CC1)c1ccc(Cl)cc1 (stereo not given) + CCn1c(-c2cc(N3CCN(C)CC3)cnc2C(C)OC)c2c3cc(ccc31)-c1csc(n1)CC(NC(=O)C1CC1C)C(=O)N1CCCC(N1)C(=O)OCC(C)(C)C2 on HOP-62 complex spheroids with HUVEC/MSC, viability?
Key: 34.7
